# protocol: Quantitative High-Throughput drug screen in 47 multiple myeloma cell lines against the NCATS MIPE library collection: EJM_DSMZ cell viability assay (AID 1918926; also: nearly all actives have a fitted effect of over 30% in size)
# experimental-context: EJM myeloma cell viability, CellTiter-Glo ATP, 48 h; series mostly up to 45.8 µM
# From the text: PI: Beverly A. Mock Ph.D. Laboratory of Cancer Biology and Genetics, Center for Cancer Research, National Cancer Institute, National Institute of Health, Bethesda, Maryland […] 5; Detector; 425V; Luminescence; Viewlux PerkinElmer. […] 1. […] Briefly, the corresponding myeloma cell lines were screened in 1,536-well plates with 500 cells, 5-uL per well for inhibition of cell viability (assessed by measuring ATP levels with CellTiterGlo). […]
Inconclusive results are not listed. Calls of active or inactive are those of the source. Calls follow the shape of the dose curve; as a rule, active = well fitted cell-killing curve with a large enough effect; inconclusive = small, poorly fitted or top-dose-only effect, or effect the other way; inactive = no such curve, though single readings can be large or run the other way.
Tick one outcome: active, inactive

Examples from the recorded data:
| compound | category |
| --- | --- |
| CN(C)c1ccc(-c2nc3ncc(Cl)c(N4CCN(CC(=O)Nc5nccs5)CC4)c3[nH]2)cc1 | active |
| Cc1nc(C(=O)NCC(=O)O)c(O)c2ccc(Oc3ccccc3)cc12 | inactive |
| O=C(CC12CC3CC(CC(C3)C1)C2)Nc1cccc2nc(NCCNCCO)ccc12 | active |
| C#CCN(C)CC1=Cc2ccccc2Oc2ccccc21 | inactive |
| COc1nccc(-c2c(-c3ccc(F)cc3)ncn2C2CCNCC2)n1 | inactive |
| CCOC(=O)N1CCN([N+]([O-])=NOc2cc(ON=[N+]([O-])N3CCN(C(=O)OCC)CC3)c([N+](=O)[O-])cc2[N+](=O)[O-])CC1 | active |
| CN1CCN(c2cccc(Nc3nc4c(-c5ccc(S(C)(=O)=O)cc5)cccn4n3)c2)CC1 | active |
| CCNC(=O)[C@H]1O[C@@H](n2cnc3c(N)nc(NCCc4ccc(CCC(=O)O)cc4)nc32)[C@H](O)[C@H]1O | active |
| CN1C(=O)C(Cc2c[nH]c3ccccc23)NC1=S (stereo not drawn) | inactive |
| C[C@@H]1CC=CC=CC=CC=C[C@@H](O[C@@H]2O[C@H](C)[C@@H](O)[C@H](N)[C@H]2O)C[C@@H]2O[C@](O)(C[C@@H](O)C[C@@H]3O[C@@H]3C=CC(=O)O1)C[C@H](O)[C@@H]2C(=O)O | inactive |

Problem: Identify the outcome logged in this assay for the compound shown: OC1CCC(Nc2ncc3nc(Nc4c(F)cc(F)cc4F)n([C@@H]4CCOC4)c3n2)CC1 (stereo partly drawn)
Result: active

This collection of values is drawn from PubChem BioAssay (NCATS).
